# targetSystem: Adenylate cyclase type 1 (Homo sapiens)
# Sequence (Q08828 whole entry, looked up): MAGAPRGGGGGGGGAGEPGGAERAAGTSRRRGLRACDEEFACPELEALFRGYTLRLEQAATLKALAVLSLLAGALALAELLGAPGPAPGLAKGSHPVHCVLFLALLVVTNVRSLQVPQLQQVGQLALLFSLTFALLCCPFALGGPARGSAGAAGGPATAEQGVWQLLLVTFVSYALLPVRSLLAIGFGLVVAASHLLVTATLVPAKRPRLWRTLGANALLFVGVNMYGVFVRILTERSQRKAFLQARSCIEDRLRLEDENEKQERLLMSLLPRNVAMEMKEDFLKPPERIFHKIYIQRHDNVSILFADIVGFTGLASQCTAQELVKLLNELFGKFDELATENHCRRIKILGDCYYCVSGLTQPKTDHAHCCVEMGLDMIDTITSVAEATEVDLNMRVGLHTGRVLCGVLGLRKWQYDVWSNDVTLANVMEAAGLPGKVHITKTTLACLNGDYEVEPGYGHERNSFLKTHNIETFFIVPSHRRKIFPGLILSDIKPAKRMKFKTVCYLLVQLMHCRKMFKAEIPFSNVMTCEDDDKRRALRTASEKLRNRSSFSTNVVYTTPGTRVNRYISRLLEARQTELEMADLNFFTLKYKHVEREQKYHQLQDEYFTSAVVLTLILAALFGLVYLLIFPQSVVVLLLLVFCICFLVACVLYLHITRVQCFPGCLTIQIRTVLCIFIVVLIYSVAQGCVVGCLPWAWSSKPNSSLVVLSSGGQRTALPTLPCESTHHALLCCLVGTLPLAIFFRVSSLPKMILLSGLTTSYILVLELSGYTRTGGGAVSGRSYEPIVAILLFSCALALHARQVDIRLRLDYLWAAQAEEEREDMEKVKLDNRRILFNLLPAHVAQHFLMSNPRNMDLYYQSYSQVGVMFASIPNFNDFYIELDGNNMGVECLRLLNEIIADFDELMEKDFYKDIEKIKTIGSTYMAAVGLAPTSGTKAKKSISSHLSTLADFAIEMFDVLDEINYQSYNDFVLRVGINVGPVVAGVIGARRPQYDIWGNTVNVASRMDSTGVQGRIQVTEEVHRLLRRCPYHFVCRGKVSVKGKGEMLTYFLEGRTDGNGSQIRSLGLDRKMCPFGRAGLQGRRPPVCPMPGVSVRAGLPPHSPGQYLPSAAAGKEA
# protocolDetails: Maximum stimulation activity measured with 100 uM forskolin mediated by adenylate cyclase 1
# Assay type: functional
measuredParameter: Activity (%)
Just the number in %, nothing appended.

C=C[C@@]1(C)CC(=O)[C@]2(O)[C@@]3(C)[C@@H](O)CCC(C)(C)[C@@H]3[C@H](OC(=O)NCCC)[C@H](OC(C)=O)[C@@]2(C)O1 = 80
C=C[C@@]1(C)CC(=O)[C@]2(O)[C@@]3(C)[C@@H](O)CCC(C)(C)[C@@H]3[C@H](OC(=O)NCCc3ccccn3)[C@H](O)[C@@]2(C)O1 = 59

Here is the next item to consider.
Data request: GET /values?readout=Activity&item= C=C[C@@]1(C)CC(=O)[C@]2(O)[C@@]3(C)[C@@H](O)CCC(C)(C)[C@@H]3[C@H](OC(=O)NCCO)[C@H](O)[C@@]2(C)O1
Data returned: 85

Measured values drawn from ChEMBL document CHEMBL1129369 for this set.
